Values from patent US10576064B2

Molecular target: p53-MDM2 interaction (GST-MDM2 protein aa 23-117 / biotinylated p53 wt peptide) (Homo sapiens (Human), UniProt Q00987)
Experiment: MDM2-p53 Inhibition AlphaScreen
Details: 20 nM GST-MDM2 (aa 23-117), 20 nM biotinylated p53 wt peptide
measurement.label: pIC50
Please express pIC50 as -log10 of the molar concentration.

Here are 8 molecules together with their reported answers.
CCOc1cccc(CN2[C@H]3CCN(c4ccc(C(=O)OC)cc4)C(=O)[C@H]3[C@H](c3cccc(Cl)c3F)[C@]23C(=O)Nc2cc(Cl)ccc23)c1 [Compound I-71] = 7.17
CCOc1cccc(CN2[C@H]3CN(c4ccc(C(N)=O)cc4)C(=O)[C@H]3[C@H](c3cccc(Cl)c3F)[C@]23C(=O)Nc2cc(Cl)ccc23)c1 [Compound I-284] = 8.52
O=C1NCC[C@H]2[C@@H]1[C@H](c1cccc(Cl)c1)[C@]1(C(=O)Nc3cc(Cl)ccc31)N2CC1CC1 [Compound I-3] = 6.58
O=C(O)c1csc(N2C[C@H]3[C@@H](C2=O)[C@H](c2cccc(Cl)c2F)[C@]2(C(=O)Nc4cc(Cl)ccc42)N3CC2CC2)n1 [Compound I-233] = 8.05
Cc1ccc2c(c1)NC(=O)[C@]21[C@@H](c2cccc(Cl)c2F)[C@@H]2C(=O)NCC[C@@H]2N1CC1CC1 [Compound I-23] = 6.54
NC(=O)c1ccc(N2CC[C@H]3[C@@H](C2=O)[C@H](c2cccc(Cl)c2F)[C@]2(C(=O)Nc4cc(Cl)ccc42)N3CC2CC2)cc1 [Compound I-268] = 7.59
COc1cc(C(=O)O)ccc1N1CC[C@H]2[C@@H](C1=O)[C@H](c1cccc(Cl)c1F)[C@]1(C(=O)Nc3cc(Cl)ccc31)N2CC1CC1 [Compound I-179] = 7.15
COCCN1[C@H]2CN(c3ccc(C(=O)O)cc3)C(=O)[C@H]2[C@H](c2cccc(Cl)c2F)[C@]12C(=O)Nc1cc(Cl)ccc12 [Compound I-224] = 7.77

The record that follows has no pIC50 shown yet.
Query :: Consider the molecule shown here: O=C(O)c1ccc(N2CC[C@H]3[C@@H](C2=O)[C@H](c2cccc(Cl)c2F)[C@]2(C(=O)Nc4cc(Cl)c(F)cc42)N3CC2CC2)cc1 [Compound I-173] What is its recorded pIC50?
Result :: 7.54

----------
Target: p53-MDM2 interaction (GST-MDM2 protein aa 23-117 / biotinylated p53 wt peptide) (Homo sapiens (Human))
Test: MDM2-p53 Inhibition AlphaScreen
Conditions: 20 nM GST-MDM2 (aa 23-117), 20 nM biotinylated p53 wt peptide
measurement.label: IC50 (nM)
Numeric answer only, unit nM assumed.

Here are 5 compounds together with their reported answers.
CCOc1cccc(CN2[C@H]3CNC(=O)[C@H]3[C@H](c3cccc(Cl)c3F)[C@]23C(=O)Nc2cc(Cl)ccc23)c1 = 8
CN(C)C(=O)c1ccc(N2CC[C@H]3[C@@H](C2=O)[C@H](c2cccc(Cl)c2F)[C@]2(C(=O)Nc4cc(Cl)ccc42)N3CC2CC2)cc1 = 25
COC(=O)c1ccc(N2CC[C@H]3[C@@H](C2=O)[C@H](c2cccc(Cl)c2F)[C@]2(C(=O)Nc4cc(Cl)ccc42)N3CC2CC2C)c(F)c1 (stereo partly drawn) = 1180
CS(=O)(=O)c1ccc(N2CC[C@H]3[C@@H](C2=O)[C@H](c2cccc(Cl)c2F)[C@]2(C(=O)Nc4cc(Cl)ccc42)N3CC2CC2)cc1 = 42
O=C1NCC[C@H]2[C@@H]1[C@H](c1cccc(Cl)c1F)[C@]1(C(=O)Nc3cc(Cl)ccc31)N2CC1CCC1 = 240

Query :: Consider the compound shown here: CC1CC1CN1[C@H]2CCN(c3ccc(C(=O)O)cc3)C(=O)[C@H]2[C@H](c2cccc(Cl)c2F)[C@]12C(=O)Nc1cc(Cl)ccc12 (stereo partly drawn) What is its recorded IC50?
Result :: 20

----------
Molecular target: p53-MDM2 interaction (GST-MDM2 protein aa 23-117 / biotinylated p53 wt peptide) (Homo sapiens (Human), UniProt Q00987)
Assay: MDM2-p53 Inhibition AlphaScreen
Conditions: 20 nM GST-MDM2 (aa 23-117), 20 nM biotinylated p53 wt peptide
measurement.label: IC50 (µM)
Numeric answer only, unit µM assumed.

Here are 5 compounds together with their reported answers.
CCOc1cccc(CN2[C@H]3CN(Cc4ccc(C(=O)O)cc4)C(=O)[C@H]3[C@H](c3cccc(Cl)c3F)[C@]23C(=O)Nc2cc(Cl)ccc23)c1 = 0.017
CNS(=O)(=O)c1ccc(N2CC[C@H]3[C@@H](C2=O)[C@H](c2cccc(Cl)c2F)[C@]2(C(=O)Nc4cc(Cl)ccc42)N3CC2CC2)cc1 = 0.093
O=C(O)c1ccc(N2C[C@@H]3[C@H](C2=O)[C@@H](c2cccc(Cl)c2F)[C@@]2(C(=O)Nc4cc(Cl)ccc42)N3CC2CC2)cc1 = 0.46
O=C(O)c1ccc(N2CC[C@H]3[C@@H](C2=O)[C@H](c2cccc(Cl)c2F)[C@]2(C(=O)Nc4cc(Br)ccc42)N3CC2CC2)cc1 = 0.015
O=C(O)c1ccc(N2C[C@@H]3[C@H](C2=O)[C@@H](c2cccc(Cl)c2F)[C@@]2(C(=O)Nc4cc(Cl)ccc42)N3CC2CCCCC2)cc1 = 0.98

Query :: Consider the compound shown here: COc1cccc(CN2[C@H]3CCN(Cc4ccc(C(=O)O)cc4)C(=O)[C@H]3[C@H](c3cccc(Cl)c3F)[C@]23C(=O)Nc2cc(Cl)ccc23)c1 What is its recorded IC50?
Result :: 0.034

Query :: Consider the compound shown here: O=C(O)c1ccc(N2CC[C@H]3[C@@H](C2=O)[C@H](c2cccc(Cl)c2F)[C@]2(C(=O)Nc4cc(Cl)ccc42)N3CC2CC2)cc1 [Compound I-170] What is its recorded IC50?
Result :: 0.011

Query :: Consider the compound shown here: O=C1[C@@H]2[C@H](CCN1c1ccncc1)N(CC1CC1)[C@@]1(C(=O)Nc3cc(Cl)ccc31)[C@H]2c1cccc(Cl)c1F What is its recorded IC50?
Result :: 0.193

Query :: Consider the compound shown here: CC(C)(C)CN1[C@H]2CN(c3ccc(C(=O)O)cc3)C(=O)[C@H]2[C@H](c2cccc(Cl)c2F)[C@]12C(=O)Nc1cc(Cl)ccc12 [Compound I-229] What is its recorded IC50?
Result :: 0.005

Query :: Consider the compound shown here: O=C(O)c1ccc(N2C[C@H]3[C@@H](C2=O)[C@H](c2cccc(Cl)c2F)[C@]2(C(=O)Nc4cc(Cl)ccc42)N3CC2CC2)cc1C(F)(F)F What is its recorded IC50?
Result :: 0.027

Query :: Consider the compound shown here: COC(=O)c1ccc(N2C[C@H]3[C@@H](C2=O)[C@H](c2cccc(Cl)c2F)[C@]2(C(=O)Nc4cc(Cl)ccc42)N3CC2CC2)c(OC)c1 What is its recorded IC50?
Result :: 0.347

Query :: Consider the compound shown here: CCOc1cccc(CN2[C@H]3CCNC(=O)[C@H]3[C@H](c3cccc(Cl)c3F)[C@]23C(=O)Nc2nc(Cl)ccc23)c1 What is its recorded IC50?
Result :: 0.03

Query :: Consider the compound shown here: O=C(O)c1ccc(N2CC[C@@H]3[C@H](C2=O)[C@@H](c2cccc(Cl)c2F)[C@@]2(C(=O)Nc4cc(Cl)ccc42)N3CC2CC2)cc1 What is its recorded IC50?
Result :: 0.302

Query :: Consider the compound shown here: O=C1[C@@H]2[C@H](CCN1c1ccc(-c3nnn[nH]3)cc1)N(CC1CC1)[C@@]1(C(=O)Nc3cc(Cl)ccc31)[C@H]2c1cccc(Cl)c1F What is its recorded IC50?
Result :: 0.017

----------
Molecular target: p53-MDM2 interaction (GST-MDM2 protein aa 23-117 / biotinylated p53 wt peptide) (Homo sapiens (Human), UniProt Q00987)
Assay: MDM2-p53 Inhibition AlphaScreen
Settings: 20 nM GST-MDM2 (aa 23-117), 20 nM biotinylated p53 wt peptide
pIC50: −log10 of the molar value.
# cutoff 7 applies to pIC50; >= gives true, < gives false

Solved entries (count: 4):
O=C1NCC[C@H]2[C@@H]1[C@H](c1cc(Br)cc(Cl)c1F)[C@]1(C(=O)Nc3cc(Cl)ccc31)N2CC1CC1 = false
O=C(O)c1ccc(N2CC[C@H]3[C@@H](C2=O)[C@H](c2cccc(Cl)c2)[C@]2(C(=O)Nc4cc(Cl)ccc42)N3CC2CC2)cc1 = true
COC(=O)c1ccc(N2CC[C@H]3[C@@H](C2=O)[C@H](c2cccc(Cl)c2F)[C@]2(C(=O)Nc4cc(Cl)ccc42)N3CC2CC2C)c(OC)c1 (stereo partly drawn) = false
O=C1OCC[C@H]2[C@@H]1[C@H](c1cccc(Cl)c1F)[C@]1(C(=O)Nc3cc(Cl)ccc31)N2CC1CC1 = false

Query :: Is pIC50 for O=C(O)c1ccc(N2C[C@H]3[C@@H](C2=O)[C@H](c2cccc(Cl)c2F)[C@]2(C(=O)Nc4cc(Cl)ccc42)N3CC2CC2)cc1OC(F)(F)F at or above 7?
Result :: true
